All values here come from paper PMC10397247.

Target: T1, 4H918-bH
T1 chain: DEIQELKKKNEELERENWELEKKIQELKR
Assay: two-hybrid library CCNG1;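 note: natural log of median RNA to DNA barcode read ratio; higher means stronger binding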
ASSAY_ENDPOINT: interaction score

Worked set:
{"BINDER": "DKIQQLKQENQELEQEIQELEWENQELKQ [4H2692-bN]", "interaction score": 1.17}
{"BINDER": "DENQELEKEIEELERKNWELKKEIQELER [4H1081-bH]", "interaction score": -0.0748}
{"BINDER": "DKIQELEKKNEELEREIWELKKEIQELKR [4H2442-bH]", "interaction score": -0.517}

A. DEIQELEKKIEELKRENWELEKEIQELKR [4H338-bH]
B. DEIQELKKENEELKREIWELKKKIQELER [4H717-bH]
C. DKNAQLKQEIAELEQKNAELEWKIAQLKQ [4H3638-bA]
D. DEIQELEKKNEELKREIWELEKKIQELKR [4H454-bH]
Sort the binders on interaction score; start with the lowest figure. Form entry: labels listed in requested order.
D, A, B, C
(D: -1.05, A: -0.137, B: 0.0812, C: 0.343)
